Target: UniProtKB Q04771
Sequence (Q04771 21-509): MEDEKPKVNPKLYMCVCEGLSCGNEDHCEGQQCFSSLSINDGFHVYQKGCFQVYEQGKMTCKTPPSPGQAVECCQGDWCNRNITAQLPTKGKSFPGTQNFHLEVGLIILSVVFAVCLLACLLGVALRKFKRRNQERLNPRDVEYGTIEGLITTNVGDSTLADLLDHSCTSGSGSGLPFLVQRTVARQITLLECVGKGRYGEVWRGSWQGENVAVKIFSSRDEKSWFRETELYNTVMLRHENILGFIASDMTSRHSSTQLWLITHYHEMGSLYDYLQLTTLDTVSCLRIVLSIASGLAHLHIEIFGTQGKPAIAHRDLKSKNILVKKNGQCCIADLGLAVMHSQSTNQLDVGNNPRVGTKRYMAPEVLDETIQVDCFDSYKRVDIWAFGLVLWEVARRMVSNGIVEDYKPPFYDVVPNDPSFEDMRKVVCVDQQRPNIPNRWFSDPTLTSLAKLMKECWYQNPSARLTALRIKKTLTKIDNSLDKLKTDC
Test: ([…] Å) of the ACVR1-FKBP12 complex; IC50 from cellular NanoBRET target engagement (HEK-293)
pIC50: −log10 of the molar value.
readout.type: pIC50

Ask: May I ask what pIC50 has been recorded for CCNc1cc(O)c2c(c1)/C=C/C[C@H](O)[C@H](O)C(=O)/C=C\[C@@H](C)[C@H](C)OC2=O ?
Reply: ~6.60
